targetOrSystem: SIRT1 (Homo sapiens)
Sequence (Q96EB6 1-747): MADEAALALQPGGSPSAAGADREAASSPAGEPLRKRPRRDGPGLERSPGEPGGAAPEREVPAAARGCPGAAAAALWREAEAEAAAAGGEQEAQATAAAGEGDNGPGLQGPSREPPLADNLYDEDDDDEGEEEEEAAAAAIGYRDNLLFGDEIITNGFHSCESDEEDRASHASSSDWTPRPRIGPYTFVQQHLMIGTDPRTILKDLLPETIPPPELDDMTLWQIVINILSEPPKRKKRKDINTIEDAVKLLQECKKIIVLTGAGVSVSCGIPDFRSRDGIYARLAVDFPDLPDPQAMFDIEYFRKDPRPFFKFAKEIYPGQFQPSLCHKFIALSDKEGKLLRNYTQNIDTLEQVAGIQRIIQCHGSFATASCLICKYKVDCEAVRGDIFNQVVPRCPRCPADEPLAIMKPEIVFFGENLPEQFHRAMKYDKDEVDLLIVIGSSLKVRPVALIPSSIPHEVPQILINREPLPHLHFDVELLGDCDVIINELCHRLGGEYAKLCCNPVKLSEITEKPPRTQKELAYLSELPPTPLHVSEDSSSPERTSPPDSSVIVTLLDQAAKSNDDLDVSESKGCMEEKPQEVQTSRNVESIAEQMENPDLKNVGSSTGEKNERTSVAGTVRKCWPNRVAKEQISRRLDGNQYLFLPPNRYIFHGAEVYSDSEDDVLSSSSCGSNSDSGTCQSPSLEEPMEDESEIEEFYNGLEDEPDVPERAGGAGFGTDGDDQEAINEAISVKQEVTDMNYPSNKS
assayName: TAMRA based mass spectrometry assay of SIRT1 activity
Type: biochemical
runConditions: TAMRA assay; concentration giving 150% activation of SIRT1
quantityName: TAMRA EC1.5 (μM)

Use these answered entries as a reference point.
{"chemicalString": "COc1ccc(NC(=O)c2cnn3ccc(-c4ccccc4OC(F)(F)F)nc23)nn1", "TAMRA EC1.5 (μM)": "A (EC1.5<1 μM)"}
{"chemicalString": "O=C(Nc1cnc2ccc(-c3ccccc3OC(F)(F)F)nn12)c1nccs1", "TAMRA EC1.5 (μM)": "A (EC1.5<1 μM)"}
{"chemicalString": "Cc1nc(C(=O)Nc2cnc3ccc(-c4ccccc4Cl)nn23)c(C)s1", "TAMRA EC1.5 (μM)": "A (EC1.5<1 μM)"}
{"chemicalString": "Cc1ccc(C(=O)Nc2cnc3ccc(-c4ccccc4C(F)(F)F)nn23)cn1", "TAMRA EC1.5 (μM)": "B (EC1.5 1-25 μM)"}
{"chemicalString": "Cc1cnc(C(=O)Nc2c(C)nc3ccc(-c4ccccc4Cl)nn23)s1", "TAMRA EC1.5 (μM)": "B (EC1.5 1-25 μM)"}

Query TAMRA EC1.5 (μM) on SIRT1 (Homo sapiens) for N#Cc1ccccc1-c1ccc2ncc(C(=O)Nc3cnccn3)n2n1
B (EC1.5 1-25 μM)

Repeat with O=C(Nc1cnc2ccc(-c3ccccc3OC(F)(F)F)nn12)c1cscn1
A (EC1.5<1 μM)

Repeat with Cc1cc2ncc(C(=O)Nc3ccncc3)n2nc1-c1ccccc1C(F)(F)F
B (EC1.5 1-25 μM)

* * *

targetOrSystem: SIRT1 (Homo sapiens, UniProt Q96EB6)
Sequence (Q96EB6 1-747): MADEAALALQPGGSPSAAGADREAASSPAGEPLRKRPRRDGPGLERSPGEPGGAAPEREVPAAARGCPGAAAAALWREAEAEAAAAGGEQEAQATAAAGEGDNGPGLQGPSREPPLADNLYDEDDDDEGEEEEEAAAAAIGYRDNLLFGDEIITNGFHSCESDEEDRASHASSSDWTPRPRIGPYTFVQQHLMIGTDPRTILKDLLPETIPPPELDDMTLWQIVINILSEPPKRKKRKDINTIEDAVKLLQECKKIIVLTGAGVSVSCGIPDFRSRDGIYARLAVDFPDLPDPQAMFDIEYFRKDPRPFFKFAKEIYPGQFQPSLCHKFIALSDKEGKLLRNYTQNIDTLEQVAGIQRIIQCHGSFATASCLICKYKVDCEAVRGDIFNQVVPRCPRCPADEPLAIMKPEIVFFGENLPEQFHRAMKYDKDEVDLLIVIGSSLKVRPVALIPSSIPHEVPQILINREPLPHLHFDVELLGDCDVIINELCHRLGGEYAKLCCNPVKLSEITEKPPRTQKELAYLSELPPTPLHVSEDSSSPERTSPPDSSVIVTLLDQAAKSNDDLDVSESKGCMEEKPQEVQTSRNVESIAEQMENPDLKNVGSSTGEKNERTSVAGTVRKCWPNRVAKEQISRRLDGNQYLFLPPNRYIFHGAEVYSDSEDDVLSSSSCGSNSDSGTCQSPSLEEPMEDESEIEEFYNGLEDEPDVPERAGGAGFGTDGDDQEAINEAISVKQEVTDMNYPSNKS
assayName: Trp mass spectrometry assay of SIRT1 activity
Type: biochemical
runConditions: concentration of test compound giving 150% activation of SIRT1; Trp peptide substrate
quantityName: Trp EC1.5 (μM)

{"chemicalString": "O=C(Nc1ncc(CN2CCOCC2)s1)c1cnc2ccc(-c3ccccc3C(F)(F)F)nn12", "targetOrSystem": "SIRT1 (Homo sapiens, UniProt Q96EB6)", "measuredResult": "B (EC1.5 1-25 μM)"}
{"chemicalString": "O=C(Nc1ccccn1)c1cnc2ccc(-c3cccc(OC(F)(F)F)c3)nn12", "targetOrSystem": "SIRT1 (Homo sapiens, UniProt Q96EB6)", "measuredResult": "B (EC1.5 1-25 μM)"}
{"chemicalString": "O=C(Nc1nc(CN2CCOCC2)cs1)c1cnc2ccc(-c3ccc(F)c(F)c3)nn12", "targetOrSystem": "SIRT1 (Homo sapiens, UniProt Q96EB6)", "measuredResult": "B (EC1.5 1-25 μM)"}
{"chemicalString": "COc1ccnc(NC(=O)c2cnc3ccc(-c4ccccc4C(F)(F)F)nn23)n1", "targetOrSystem": "SIRT1 (Homo sapiens, UniProt Q96EB6)", "measuredResult": "B (EC1.5 1-25 μM)"}
{"chemicalString": "Cc1cnc(NC(=O)c2cnc3ccc(-c4cccc(C(F)(F)F)c4)nn23)s1", "targetOrSystem": "SIRT1 (Homo sapiens, UniProt Q96EB6)", "measuredResult": "B (EC1.5 1-25 μM)"}
{"chemicalString": "O=C(Nc1nc(CN2CCOCC2)cs1)c1cnc2ccc(-c3ccccc3C(F)F)nn12", "targetOrSystem": "SIRT1 (Homo sapiens, UniProt Q96EB6)", "measuredResult": "C (EC1.5>25 μM)"}
{"chemicalString": "O=C(Nc1ccnc(N2CCC2)c1)c1cnc2ccc(-c3ccccc3F)nn12", "targetOrSystem": "SIRT1 (Homo sapiens, UniProt Q96EB6)", "measuredResult": "C (EC1.5>25 μM)"}

From here, focus on the item given below.
Quick one: Trp EC1.5 (μM) for O=C(Nc1ccnc(CN2CCOCC2)n1)c1cnc2ccc(-c3ccccc3C(F)F)nn12 ?
C (EC1.5>25 μM)

* * *

targetOrSystem: SIRT1 (Homo sapiens, UniProt Q96EB6)
Sequence (Q96EB6 1-747): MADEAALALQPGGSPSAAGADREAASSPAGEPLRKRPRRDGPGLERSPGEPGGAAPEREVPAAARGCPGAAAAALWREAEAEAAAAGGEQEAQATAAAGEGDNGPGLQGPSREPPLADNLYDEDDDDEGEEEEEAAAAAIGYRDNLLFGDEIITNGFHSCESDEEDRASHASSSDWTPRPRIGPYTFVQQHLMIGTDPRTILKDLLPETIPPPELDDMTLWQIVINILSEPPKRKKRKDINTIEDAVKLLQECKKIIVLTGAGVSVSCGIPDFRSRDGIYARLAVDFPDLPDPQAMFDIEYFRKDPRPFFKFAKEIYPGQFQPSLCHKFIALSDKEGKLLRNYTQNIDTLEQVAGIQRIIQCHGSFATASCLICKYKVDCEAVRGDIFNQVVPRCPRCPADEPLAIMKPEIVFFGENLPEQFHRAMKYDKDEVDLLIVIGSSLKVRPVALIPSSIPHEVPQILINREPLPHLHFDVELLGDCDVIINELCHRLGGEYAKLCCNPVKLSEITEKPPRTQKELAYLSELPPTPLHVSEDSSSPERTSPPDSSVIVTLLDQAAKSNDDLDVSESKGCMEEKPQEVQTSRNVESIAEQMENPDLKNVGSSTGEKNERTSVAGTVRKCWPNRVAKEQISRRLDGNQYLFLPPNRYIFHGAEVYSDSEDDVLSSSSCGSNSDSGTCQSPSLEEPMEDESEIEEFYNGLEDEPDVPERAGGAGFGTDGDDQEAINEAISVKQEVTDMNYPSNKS
assayName: TAMRA based mass spectrometry assay of SIRT1 activity
Type: biochemical
runConditions: concentration of test compound giving 150% activation of SIRT1; TAMRA peptide substrate

{"chemicalString": "Cc1cc(C)c(NC(=O)c2cnc3ccc(-c4ccccc4C(F)(F)F)nn23)cn1", "targetOrSystem": "SIRT1 (Homo sapiens, UniProt Q96EB6)", "TAMRA EC1.5 (μM)": "B (EC1.5 1-25 μM)"}
{"chemicalString": "O=C(Nc1ccccn1)c1cnc2ccc(-c3cccc(C(F)(F)F)c3)nn12", "targetOrSystem": "SIRT1 (Homo sapiens, UniProt Q96EB6)", "TAMRA EC1.5 (μM)": "B (EC1.5 1-25 μM)"}

// provenance: patent US9957271B2
